Each recorded value in this set is attributed to patent EP4644419A1.

Each entry below lists one item and its recorded EC50 value.
Target: T1, monkey antigen protein (monkey CD112R, Uniprot ID: A0A2K5WVV8) (monkey, UniProt A0A2K5WVV8 41-171)
T1 sequence: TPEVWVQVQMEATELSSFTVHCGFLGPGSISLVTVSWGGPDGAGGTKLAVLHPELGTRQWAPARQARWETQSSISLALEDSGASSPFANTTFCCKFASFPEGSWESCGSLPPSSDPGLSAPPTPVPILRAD
Assay: ELISA, monkey antigen protein (as Example 6.1)
API: value field is a number in nM; no unit string.

C18 (antibody, human IgG1, kappa, V domains shown) VH: EVQLVESGGGLVKPGGSLKLSCAASGFTFSDYYMYWVRQTPEKRLEWVATISDGGGFIYYPDSVKGRFTISRDNDRNSLYLLMSSLKSEDTAMYFCGREDLWGQGTSVTVSS VL: DIQMTQSPSSLSASLGERVSLTCRASQDIGRSLNWLQQGPDGTVKRLIYATSRLDSGVPTRFSGSRSGSDYSLTISSLESEDFVDYYCLQYASFPYTFGGGTKLEIKR: 0.069
C143 (antibody, human IgG1, kappa, V domains shown) VH: EVQLVESGGGLVKPGGSLKLSCAASGFTFSNFAMSWVRQTPAMRLESVATIVNGGINTYYPDTVKGRFTVSRDNAKNTLYLQMSSLRSEDTAIYYCARHDDFLYYAMDYWGQGTSVTVSS VL: QIVLTQSPAIMSASPGEKVTMTCSASSSVNYMFWYQQKPGSSPRLLIYDTSNLASGVPVRFSGSGSGTSYSLTISRLEAEDAATYYCQQWTSYPLTFGAGTKLDLKR: 0.04
C145 (antibody, human IgG1, kappa, V domains shown) VH: EVQLQQSGPEVVKPGASVRISCKASGNTFTDFFINWVKQSHGKSLEWIGDVNPDSNGANYNQKFKGKATLTVDKSSGTAFMGLRSLTSEDSAVYYCATLFFDNWGQGTTLTVSS VL: DIVMTQSPSSLNVSAGEKVTMSCKSSQSLLNSGNQKNYLAWYQQKPGQPPKLLIYGASTRESGVPDRFTGSGSGTDFILTISSVQAEDLALYYCQNAHSSPYTFGGGTKLEIKR: 0.042
C121 (antibody, human IgG1, kappa, V domains shown) VH: EVQLQQSGPEVVKPGASVKISCKASGNTFTDYFINWVKQSHGKSLEWIGDINPDNGGTNYNQKFKGKATLTVDKSSGTAFMGLRSLTSEDSAVYYCATLYFDYWGQGTSLTVSS VL: DIVMTQSPSSLSVSAGEKVTMSCKSSQSLLNSGNQKNYLAWYQQKPGQPPKLLIYGASTRESGVPDRFTGSGSGTDFTLTISSVQAEDLAVYYCQNAHSSPYTFGGGTRLEIKR: 0.055
C101 (antibody, human IgG1, kappa, V domains shown) VH: EVQLQQSGPELVKPGSSVKISCEASGFTFADYNVDWVKQSHGKSLEWIGAINPNDGGTSYNQKFEGKATLTVDKSSTTAYMELRSLTSEDSAVYYCARWVNNDWYFDVWGTGTTVTVSS VL: DIVMTQSQKFMSTSVGDRVSITCKASQNVRSAVDWYQQKPGQSPKTLIHSASNRHTGVPDRFTGSGSGTDFTLTISNIQSEDLADYFCLQHWNYPYTFGGGTKLEVKR: 0.085

Exercise: Answer with reported EC50 of C43 (antibody, human IgG1, kappa, V domains shown) VH: QVQLQQPGAELVRPGTSVKLSCKASGNTFTTYWMHWVKQRPGQGHEWIGVIDASDSNTKYNQKFKGKATLTVDTSSSTAYMQLSSLTSEDSAVYYCARYYSGSSYGLDYWGQGTTLTVSS VL: DIQMTQTASSLSASLGDRVTISCRASQDISNYLNWYQQKPDGTVKLLIYYTSRLHSGVPSRFSGSGSGTDYSLTITNLEQEDIASYFCQQGNMFPPTFGGGTKLEIKR
Key: 0.044

Exercise: Could you please provide reported EC50 for C12 (antibody, human IgG1, kappa, V domains shown) VH: EVQLVASGGGLVKPGGSLKLSCAASGFTFSDYYMYWVRQTPEKRLEWVATISDGGGYTYYPDSVKGRFTISRDNDRNSLYLQMSSLKSEDTAMYYCGREDLWGQGTSVTVSS VL: DIQMTQSPSSLSASLGERVSLTCRASQDIGSSLNWLQQEPDGTVKRLIYATSRLDSGVPKRFSGSRSGSDYSLTISSLESEDFVDYYCLQYASFPYTFGGGTKLEIKR ? Thanks!
Key: 0.768

Exercise: Please report the measured EC50 for C36 (antibody, human IgG1, kappa, V domains shown) VH: QIQLVQSGPELKKPGETVKISCKASGYTFTTYGMSWVKQAPGKGLKWMGWINTYSGVPTYADDFKGRFAFSLETSASNAYLQINNLKNEDTATYFCARELPFTTIIGTKDYWGQGTTLTVSS VL: DIVLIQSPATLSVTPGDSVSLSCRASQFISNNLHWYQQKSHESPRLLIKYASQSISGIPSRFSGGGSGTDFTLTVNSVETEDFGMYFCQQSNSWPHTFGGGTKLEIKR
Key: 0.101

Exercise: Please give measured EC50 of the following entry: C3 (antibody, human IgG1, kappa, V domains shown) VH: QVQLQQSGPELVKPGASVKISCRSSGYTFTDYYINWVKQRPGQGLEWIGWIFPGSDYTYYNEKFKGKATLTVDKSSTTAYMLLSSLTSEDSAVYFCARDGGLRGPFDYWGQGTTLTVSS VL: DIQMTQSPSSLSASLGGKVTITCKASQDINKYIAWYQQKPGKGPRLLIHYTSTLQPGIPSRFSGSGSGRNSSFSISNLEPEDIATYYCLQYDNLHTFGGGTKLEIKR
Key: 0.118

Exercise: Give the measured EC50 for C124 (antibody, human IgG1, kappa, V domains shown) VH: EVQLVESGGGLVKPGGSLKLSCAASGFTFSSFAMSWVRQTPAKRLESVATINNGGINTYYPDTVKGRFTVSRDNAKNTLYLQMSSLRSEDTAMYYCARHDDFLYYAMDYWGQGTSVTVSS VL: QIVLTQSPAIMSASPGEKVTMTCSASSSVSYMYWYQQKPGSSPRLLIYDTSNLASGVPVRFSGSGSGTSYSLTISRMEAEDAATYYCQQWTSYPLTFGAGTKLELKR
Key: 0.059
